Measurement Setup: 373.15 K; 101.33 kPa; Liquid; Vibrating tube method
Measured mass density, listed per entry for reference.
Measurement Type: mass density (kg/m3)

1) CCn1cc[n+](C)c1.O=S(=O)([N-]S(=O)(=O)C(F)(F)F)C(F)(F)F; 1447
2) CCCCCCCCCCCCn1cc[n+](C)c1.O=S(=O)([N-]S(=O)(=O)C(F)(F)F)C(F)(F)F; 1182.8
3) CCCC[n+]1ccn(C)c1.O=S(=O)([N-]S(=O)(=O)C(F)(F)F)C(F)(F)F; 1367.9
4) CCCCCn1cc[n+](C)c1.O=S(=O)([N-]S(=O)(=O)C(F)(F)F)C(F)(F)F; 1335
5) CCCCCCCn1cc[n+](C)c1.O=S(=O)([N-]S(=O)(=O)C(F)(F)F)C(F)(F)F; 1278.9
6) CCCn1cc[n+](C)c1.O=S(=O)([N-]S(=O)(=O)C(F)(F)F)C(F)(F)F; 1404
7) CCCCCCCCC[n+]1ccn(C)c1.O=S(=O)([N-]S(=O)(=O)C(F)(F)F)C(F)(F)F; 1234.3
8) CCCCCCCCCCn1cc[n+](C)c1.O=S(=O)([N-]S(=O)(=O)C(F)(F)F)C(F)(F)F; 1216.7
9) CCCCCCCCCCCCCCn1cc[n+](C)c1.O=S(=O)([N-]S(=O)(=O)C(F)(F)F)C(F)(F)F; 1152.4
10) CCCCCC[n+]1ccn(C)c1.O=S(=O)([N-]S(=O)(=O)C(F)(F)F)C(F)(F)F; 1306.3
11) CCCCCCCCn1cc[n+](C)c1.O=S(=O)([N-]S(=O)(=O)C(F)(F)F)C(F)(F)F; 1256.7

---

Measurement Setup: 443.15 K; 101.33 kPa; Liquid; Vibrating tube method
Measurement Type: mass density (kg/m3)

1) CCCCCn1cc[n+](C)c1.O=S(=O)([N-]S(=O)(=O)C(F)(F)F)C(F)(F)F; 1270.3
2) CCn1cc[n+](C)c1.O=S(=O)([N-]S(=O)(=O)C(F)(F)F)C(F)(F)F; 1377
3) CCCCCCCCC[n+]1ccn(C)c1.O=S(=O)([N-]S(=O)(=O)C(F)(F)F)C(F)(F)F; 1174.5
4) CCCCCCCCCCn1cc[n+](C)c1.O=S(=O)([N-]S(=O)(=O)C(F)(F)F)C(F)(F)F; 1157.8
5) CCCn1cc[n+](C)c1.O=S(=O)([N-]S(=O)(=O)C(F)(F)F)C(F)(F)F; 1335.9
6) CCCC[n+]1ccn(C)c1.O=S(=O)([N-]S(=O)(=O)C(F)(F)F)C(F)(F)F; 1301.9
7) CCCCCCCCCCCCCCn1cc[n+](C)c1.O=S(=O)([N-]S(=O)(=O)C(F)(F)F)C(F)(F)F; 1096.2
8) CCCCCCCCn1cc[n+](C)c1.O=S(=O)([N-]S(=O)(=O)C(F)(F)F)C(F)(F)F; 1195.9
9) CCCCCCCn1cc[n+](C)c1.O=S(=O)([N-]S(=O)(=O)C(F)(F)F)C(F)(F)F; 1217

---

Measurement Setup: 393.15 K; 101.33 kPa; Liquid; Vibrating tube method
Measurement Type: mass density (kg/m3)

1) CCCCCCCn1cc[n+](C)c1.O=S(=O)([N-]S(=O)(=O)C(F)(F)F)C(F)(F)F; 1261.4
2) CCCCCCCCn1cc[n+](C)c1.O=S(=O)([N-]S(=O)(=O)C(F)(F)F)C(F)(F)F; 1239.5
3) CCn1cc[n+](C)c1.O=S(=O)([N-]S(=O)(=O)C(F)(F)F)C(F)(F)F; 1427.4
